The origin of these recorded values is patent US20240123070A1.

A collection of binders and their measured TCR Mut RLU/WT RLU
target_of_assay: KRAS G13D antigen (G13D-RT6, SEQ ID NO: 20) loaded on Lovo-DPA0301:DPB0501 cells (human)
method: cell-based or functional assay
// note: answer is a bare numeric in ratio

Solved cases below.
// lookup TCR Mut RLU/WT RLU for B8.2.4 TCR mutant β98P-F (TCR, V domains shown) V domain 1: AQKITQTQPGMFVQEKEAVTLDCTYDTSDPSYGLFWYKQPSSGEMIFLIYQGSYDQQNATEGRYSLNFQKARKSANLVISASQLGDSAMYFCAMRERTGTASKLTFGTGTRLQVTL V domain 2: DVKVTQSSRYLVKRTGEKVFLECVQDMDHENMFWYRQDPGLGLRLIYFSYDVKMKEKGDIPEGYSVSREKKERFSLILESASTNQTSMYLCASSQTVFPQHFGDGTRLSILE
0.96

And what about the binder B8.2.4 TCR mutant β96T-Q (TCR, V domains shown) V domain 1: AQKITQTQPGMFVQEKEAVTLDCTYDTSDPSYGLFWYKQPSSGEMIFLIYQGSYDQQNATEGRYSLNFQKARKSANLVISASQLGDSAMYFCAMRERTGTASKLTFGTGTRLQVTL V domain 2: DVKVTQSSRYLVKRTGEKVFLECVQDMDHENMFWYRQDPGLGLRLIYFSYDVKMKEKGDIPEGYSVSREKKERFSLILESASTNQTSMYLCASSQQVPPQHFGDGTRLSILE ?
0.57

// next item, TCR Mut RLU/WT RLU requested
Can you look up the measured TCR Mut RLU/WT RLU of B8.2.4 TCR mutant β97V-I (TCR, V domains shown) V domain 1: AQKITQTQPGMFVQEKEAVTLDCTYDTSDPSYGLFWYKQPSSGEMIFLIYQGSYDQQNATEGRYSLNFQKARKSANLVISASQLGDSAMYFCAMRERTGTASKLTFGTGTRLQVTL V domain 2: DVKVTQSSRYLVKRTGEKVFLECVQDMDHENMFWYRQDPGLGLRLIYFSYDVKMKEKGDIPEGYSVSREKKERFSLILESASTNQTSMYLCASSQTIPPQHFGDGTRLSILE for me?
0.61
